test system: NCI-H23 lung; experiment: NCI-60 one-dose screen, 48 h; conditions: 10 µM unless noted
The panel holds about 83,000 compounds, 20% with a hit somewhere; the sample as a whole holds those more often. Activity calls are given as the source filed them. How the source made its calls: active means growth percent below 10; inactive means the rest.
Hello, when you answer, please use one of the following outcomes: active, inactive

Here are 3 compounds together with their reported answers.
{"compound": "C/C1=C\\CC[C@@]2(C)O[C@H]2[C@H]2OC(=O)C(CN3CCN(CC4C(=O)O[C@H]5[C@H]4CC/C(C)=C/CC[C@@]4(C)O[C@@H]54)CC3)[C@@H]2CC1 (stereo partly drawn)", "class_assignment": "inactive"}
{"compound": "COc1ccc(-c2cc(=O)c3c(OC)c4ccoc4cc3o2)cc1", "class_assignment": "inactive"}
{"compound": "CCOc1ccc(-n2nc(C(=O)Nc3ccccc3)nc2-c2cc(OC)c(OC)c(OC)c2)cc1", "class_assignment": "inactive"}

Q. Hi, do you know how Cc1ccc(C2=NN3C(C2)c2cc(Br)ccc2OC32CCN(Cc3ccccc3)CC2)o1 (stereo not drawn) came out in this test?
A. inactive

Q. Check CC(=O)c1nc2ccccc2n1CC(=O)c1cccc(Cl)c1 too.
A. inactive

Q. And what about the compound O=C(CCCCC(=O)N/N=C\c1ccccc1O)N/N=C\c1ccccc1O ?
A. inactive

Q. Likewise for OC(c1cc2cc(Cl)c(Cl)cc2c2cc(C(F)(F)F)ccc12)C1CCCCN1 (stereo not drawn) ?
A. active

Q. Follow-up item: C#CCOc1ccc2ncnc(N3CCC(NC(=O)CCl)CC3)c2c1
A. inactive

Q. Similarly, COc1cc(-c2nc3cc(Cl)c(Cl)cc3[nH]2)ccc1OCC(=O)N=Nc1c(O)[nH]c2ccccc12 ?
A. active

Q. Item: O=C1NC(=S)NC(=O)C1CC(=O)n1c(-c2ccccc2)nc2ccccc21
A. inactive

Q. Here is the next compound: CC1=CC(=NN=c2cc(C)n([O-])c(C)c2)C=C(C)[N+]1=O
A. inactive

Q. Same question for CC(=O)c1cc(C(=O)c2ccc3c(c2)Sc2ccccc2N3)n2ccccc12 please.
A. inactive

Q. What do you get for COc1cc(-c2nc3ccccc3[nH]2)ccc1OCc1nnc(-c2ccc(CC(C)C)cc2)o1 ?
A. inactive

Q. Next: CCCCn1cnc2c(Sc3c([N+](=O)[O-])ncn3C)nc(N)nc21
A. inactive

Q. Can you check CCn1c(O)c(/C=N/NC(=O)C(C)c2ccc(CC(C)C)cc2)sc1=S (stereo not drawn) next?
A. inactive

Q. What would you report for C=C(C)[C@@H]1CC[C@]2(C(=O)OC)CC[C@]3(C)[C@H](CC[C@@H]4[C@@]5(C)C/C(=C/c6cccc(I)c6)C(=O)C(C)(C)[C@@H]5CC[C@]43C)[C@@H]12 ?
A. inactive

Q. Another compound: O=C(N=Nc1c(O)[nH]c2ccc(Br)cc12)c1cc(-c2ccccc2)on1
A. inactive

Q. How about O=C1C=C(OCC=C(Cl)Cl)C(=O)c2ccccc21 ?
A. inactive

Q. Request: CC(C)C1=C[C@@]23CC[C@@H]4[C@](C)(CCC[C@@]4(C)C(=O)N4CCCNCC4)[C@H]2C[C@@H]1[C@H]1C(=O)CCC(=O)[C@H]13
A. inactive
